Tested on: HOP-62
experiment.description: relative viability (nuclei count vs DMSO), 5 days (fraction); higher = more cells survive
assay.setup: first compound 500 µM
readout.type: relative viability
One number for each entry.

Below are worked cases with known answers.
Fill in: relative viability of O=C(O)CCCCC(CCSCc1ccccc1)SCc1ccccc1 (stereo unspecified) [CPI-613] + COc1cccc2cc(-c3nc([C@H]4CC[C@H](C(=O)O)CC4)n4ncnc(N)c34)[nH]c12 [OSI-027] (partner 0.5 µM) is ___
0.301

Could you do the same for O=C(O)CCCCC(CCSCc1ccccc1)SCc1ccccc1 (stereo unspecified) [CPI-613] + N=C(N)NC(=N)NCCc1ccccc1 [Phenformin] (partner 250 µM) , please?
0.204

Could you do the same for O=C(O)CCCCC(CCSCc1ccccc1)SCc1ccccc1 (stereo unspecified) [CPI-613] + CC1(C)CCC(c2ccc(Cl)cc2)=C(CN2CCN(c3ccc(C(=O)NS(=O)(=O)c4ccc(N[C@H](CCN5CCOCC5)CSc5ccccc5)c(S(=O)(=O)C(F)(F)F)c4)cc3)CC2)C1 [Navitoclax] (partner 0.5 µM) , please?
0.911

Could you do the same for O=C(O)CCCCC(CCSCc1ccccc1)SCc1ccccc1 (stereo unspecified) [CPI-613] + CS(=O)(=O)N1CCN(Cc2cc3nc(-c4cccc5[nH]ncc45)nc(N4CCOCC4)c3s2)CC1 [Pictilisib] (partner 1 µM) , please?
0.0332

Could you do the same for O=C(O)CCCCC(CCSCc1ccccc1)SCc1ccccc1 (stereo unspecified) [CPI-613] + C[C@]1(O)C[C@@H](c2nc(-c3ccc4ccc(-c5ccccc5)nc4c3)c3c(N)nccn32)C1 [Linsitinib] (partner 1 µM) , please?
0.0257

Next:
Fill in: relative viability of O=C(O)CCCCC(CCSCc1ccccc1)SCc1ccccc1 (stereo unspecified) [CPI-613] + Cc1nc(Nc2ncc(C(=O)Nc3c(C)cccc3Cl)s2)cc(N2CCN(CCO)CC2)n1 [Dasatinib] (partner 0.075 µM) is ___
0.0443

====

Tested on: NCI-H1734
experiment.description: relative viability (nuclei count vs DMSO), 5 days (fraction); higher = more cells survive
assay.setup: first compound 0.0002 µM
readout.type: relative viability
Give bare numbers.

Fill in: relative viability of CC(=O)O[C@@]12CO[C@@H]1C[C@H](O)[C@@]1(C)C(=O)[C@H](O)C3=C(C)[C@@H](OC(=O)[C@H](O)[C@@H](NC(=O)OC(C)(C)C)c4ccccc4)C[C@@](O)([C@@H](OC(=O)c4ccccc4)[C@H]21)C3(C)C [Docetaxel] + CC(=O)Nc1cccc(-n2c(=O)n(C3CC3)c(=O)c3c(Nc4ccc(I)cc4F)n(C)c(=O)c(C)c32)c1 [Trametinib] (partner 0.02 µM) is ___
0.615

Could you do the same for CC(=O)O[C@@]12CO[C@@H]1C[C@H](O)[C@@]1(C)C(=O)[C@H](O)C3=C(C)[C@@H](OC(=O)[C@H](O)[C@@H](NC(=O)OC(C)(C)C)c4ccccc4)C[C@@](O)([C@@H](OC(=O)c4ccccc4)[C@H]21)C3(C)C [Docetaxel] + COc1cc2c(Oc3ccc(NC(=O)C4(C(=O)Nc5ccc(F)cc5)CC4)cc3F)ccnc2cc1OCCCN1CCOCC1 [Foretinib] (partner 0.25 µM) , please?
0.776

Could you do the same for CC(=O)O[C@@]12CO[C@@H]1C[C@H](O)[C@@]1(C)C(=O)[C@H](O)C3=C(C)[C@@H](OC(=O)[C@H](O)[C@@H](NC(=O)OC(C)(C)C)c4ccccc4)C[C@@](O)([C@@H](OC(=O)c4ccccc4)[C@H]21)C3(C)C [Docetaxel] + N=C(N)NC(=N)NCCc1ccccc1 [Phenformin] (partner 250 µM) , please?
0.296

Others:
Fill in: relative viability of CC(=O)O[C@@]12CO[C@@H]1C[C@H](O)[C@@]1(C)C(=O)[C@H](O)C3=C(C)[C@@H](OC(=O)[C@H](O)[C@@H](NC(=O)OC(C)(C)C)c4ccccc4)C[C@@](O)([C@@H](OC(=O)c4ccccc4)[C@H]21)C3(C)C [Docetaxel] + CS(=O)(=O)CCNCc1ccc(-c2ccc3ncnc(Nc4ccc(OCc5cccc(F)c5)c(Cl)c4)c3c2)o1 [Lapatinib] (partner 2 µM) is ___
0.986

Data origin: the supplement of paper PMC10307832
